These entries and their values trace back to ChEMBL document CHEMBL3244320.

Test system: Plasmodium berghei
Assay: Antimalarial activity against Plasmodium berghei KBG 173 infected in ICR/HA Swiss mouse assessed as increase in mean survival time at 160 mg/kg, sc administered 72 hrs post infection
Type: functional
Conditions: route subcutaneous
test_readout: log10(MST) (log10 of the value in days)

substance_smiles: C=CCNC(=S)N/N=C(\C)c1ccccn1
assay_system: Plasmodium berghei
log10(MST): 0.49

substance_smiles: C/C(=N\NC(=S)Nc1cccc(Cl)c1)c1ccccn1
assay_system: Plasmodium berghei
log10(MST): 0.40

substance_smiles: CC/C(=N\NC(=S)Nc1ccc(Br)cc1)c1ccccn1
assay_system: Plasmodium berghei
log10(MST): -0.52

substance_smiles: C/C(=N\NC(=S)Nc1ccccc1F)c1ccccn1
assay_system: Plasmodium berghei
log10(MST): 0.83

substance_smiles: C/C(=N\NC(=S)Nc1cccc(Br)c1)c1ccccn1
assay_system: Plasmodium berghei
log10(MST): -0.52

substance_smiles: C/C(=N\NC(=S)NC12CC3CC(CC(C3)C1)C2)c1ccccn1
assay_system: Plasmodium berghei
log10(MST): 0.57

substance_smiles: CCOC(=O)c1ccc(NC(=S)N/N=C(\C)c2ccccn2)cc1
assay_system: Plasmodium berghei
log10(MST): -0.52

substance_smiles: C/C(=N\NC(=S)NCc1ccc(Cl)cc1)c1ccccn1
assay_system: Plasmodium berghei
log10(MST): 0.32

substance_smiles: C/C(=N\NC(=S)Nc1ccccc1C)c1ccccn1
assay_system: Plasmodium berghei
log10(MST): -0.05

substance_smiles: COc1ccccc1CNC(=S)N/N=C(\C)c1ccccn1
assay_system: Plasmodium berghei
log10(MST): 0.11

substance_smiles: C/C(=N\NC(=S)Nc1ccc(Cl)c(Cl)c1)c1ccccn1
assay_system: Plasmodium berghei
log10(MST): -0.30

substance_smiles: CC/C(=N\NC(=S)Nc1ccc([N+](=O)[O-])cc1)c1ccccn1
assay_system: Plasmodium berghei
log10(MST): -1.00

----------
Each item that follows carries a reported log10 of MST.
Tested on: Plasmodium berghei
Assay: Antimalarial activity against Plasmodium berghei KBG 173 infected in ICR/HA Swiss mouse assessed as increase in mean survival time at 160 mg/kg, sc administered 72 hrs post infection
Type: functional
Conditions: route subcutaneous
test_readout: log10 of MST (log10 of the value in days)

substance_smiles: C/C(=N\NC(=S)NC1CCCCCCC1)c1ccccn1
test_readout: log10 of MST
result_number: 0.53
--
substance_smiles: C/C(=N\NC(=S)Nc1cc(Cl)c(Cl)cc1Cl)c1ccccn1
test_readout: log10 of MST
result_number: -1.00
--
substance_smiles: CCc1ccc(NC(=S)N/N=C(\C)c2ccccn2)cc1
test_readout: log10 of MST
result_number: 0.32
--
substance_smiles: C/C(=N\NC(=S)Nc1ccc(O)cc1)c1ccccn1
test_readout: log10 of MST
result_number: -0.52
--
substance_smiles: CC/C(=N\NC(=S)Nc1cccc(Cl)c1)c1ccccn1
test_readout: log10 of MST
result_number: -0.52
--
substance_smiles: CCN(CC)Cc1cc(NC(=S)N/N=C(\C)c2ccccn2)ccc1O.Cl.O
test_readout: log10 of MST
result_number: 0.94
--
substance_smiles: C/C(=N\NC(=S)NCc1ccccn1)c1ccccn1
test_readout: log10 of MST
result_number: -0.52

----------
System: Plasmodium berghei
Test: Antimalarial activity against Plasmodium berghei KBG 173 infected in ICR/HA Swiss mouse assessed as increase in mean survival time at 160 mg/kg, sc administered 72 hrs post infection
Type: functional
Conditions: route subcutaneous
Lab note: anything with MST below 0.9 days is marked Y; values at 0.9 days or higher are marked N.

substance_smiles: C/C(=N\NC(=S)Nc1ccc(F)cc1)c1ccccn1
cat: N

substance_smiles: C/C(=N\NC(=S)Nc1ccc(Cl)cc1)c1ccccn1
cat: N

substance_smiles: C/C(=N\NC(=S)NCc1ccccc1C)c1ccccn1
cat: N

substance_smiles: CC/C(=N\NC(=S)Nc1ccc(Cl)cc1)c1ccccn1
cat: Y

substance_smiles: C/C(=N\NC(=S)Nc1ccccc1Br)c1ccccn1
cat: Y

substance_smiles: C/C(=N\NC(=S)NC(c1ccccc1)(c1ccccc1)c1ccccc1)c1ccccn1
cat: Y

substance_smiles: Br.CCN(CC)CCNC(=S)N/N=C(\C)c1ccccn1
cat: Y

substance_smiles: C/C(=N\NC(=S)NCc1ccccc1Cl)c1ccccn1
cat: Y

substance_smiles: C/C(=N\N=C(/S)NCc1ccccc1)c1ccccn1
cat: N

substance_smiles: C/C(=N\NC(=S)Nc1ccc(Cl)cc1Cl)c1ccccn1
cat: Y

substance_smiles: CCc1ccccc1NC(=S)N/N=C(\C)c1ccccn1
cat: Y
